molecular target: UniProt P05121; experiment: PAI-1 inhibition in the S2251 chromogenic substrate assay (PAI functional assay); assay type: biochemical; conditions: 20 μM; Table 1, second part; read-out: INHIBITION OF PAI-1 (degree of inhibition)
Sequence (P05121 24-402): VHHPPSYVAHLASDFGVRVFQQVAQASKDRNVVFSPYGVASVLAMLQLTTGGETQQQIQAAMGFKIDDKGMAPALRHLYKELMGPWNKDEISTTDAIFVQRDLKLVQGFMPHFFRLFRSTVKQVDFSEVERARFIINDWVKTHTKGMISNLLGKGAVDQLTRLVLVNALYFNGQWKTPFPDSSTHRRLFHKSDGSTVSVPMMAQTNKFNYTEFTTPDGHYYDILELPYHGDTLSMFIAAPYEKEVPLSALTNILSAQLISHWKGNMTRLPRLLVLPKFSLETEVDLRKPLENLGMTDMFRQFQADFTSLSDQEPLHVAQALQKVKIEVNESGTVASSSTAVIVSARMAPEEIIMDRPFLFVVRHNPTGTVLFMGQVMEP
measure-name: inhibition at 20 µM (%)
One number for each entry, in %.

Hi, could you look up inhibition at 20 µM for each item in my list?
1. O=c1[nH]/c(=C\c2cc(Cl)sc2Cl)c(=O)[nH]/c1=C\c1ccccc1
2. O=c1[nH]/c(=C\c2ccc(OCCn3ccnc3)cc2)c(=O)[nH]/c1=C\c1ccccc1
3. CN(C)CCOc1ccc(/C=c2\[nH]c(=O)/c(=C/c3ccoc3)[nH]c2=O)cc1

1: 52; 2: 70; 3: 87

// returns reported inhibition at 20 µM for input CN(C)CCOCc1ccc(/C=c2\[nH]c(=O)/c(=C/c3ccsc3)[nH]c2=O)cc1 75
